B1: RIPK4 (parent)
chain: RERMELLEEAKKMEMAKFRYILPV

- Variants of: B1
- ASSAY NOTES: protein stability index of a GFP-peptide fusion (GPS, HEK-293T) (PSI 1-6); higher = more stable;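 also: lentivirally expressed fusions sorted by FACS into six bins by GFP to DsRed ratio, PSI derived from sequencing read proportions per bin multiplied by bin number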
- ASSAY SETUP: c terminus: a fixed tail appended
READOUT LABEL: protein stability index
Respond using a number only.

Reported protein stability index for M15Q : what is it?
3.34
